test system: Streptococcus pneumoniae Park 1; assay type: cell-based; settings: agar dilution
Parameter MIC: see the listing below.

{"columns": ["molecule", "reading unit", "MIC"],
 "data": [
  ["CN[C@H](CC(C)C)C(=O)N[C@H]1C(=O)N[C@@H](CC(N)=O)C(=O)N[C@H]2C(=O)N[C@H]3C(=O)N[C@H](C(=O)N[C@H](C(=O)O)c4cc(O)cc(O)c4-c4cc3ccc4O)[C@H](O)c3ccc(c(Cl)c3)Oc3cc2cc(c3O[C@@H]2O[C@H](CO)[C@@H](O)[C@H](O)[C@H]2O[C@H]2C[C@](C)(NC(=O)c3ccc(OC)cc3)[C@H](O)[C@H](C)O2)Oc2ccc(cc2Cl)[C@H]1O", "µg/mL", 0.5],
  ["CN[C@H](CC(C)C)C(=O)N[C@H]1C(=O)N[C@@H](CC(N)=O)C(=O)N[C@H]2C(=O)N[C@H]3C(=O)N[C@H](C(=O)N[C@H](C(=O)O)c4cc(O)cc(O)c4-c4cc3ccc4O)[C@H](O)c3ccc(c(Cl)c3)Oc3cc2cc(c3O[C@@H]2O[C@H](CO)[C@@H](O)[C@H](O)[C@H]2O[C@H]2C[C@](C)(NC(=O)CC(C)c3cccs3)[C@H](O)[C@H](C)O2)Oc2ccc(cc2Cl)[C@H]1O (stereo partly shown)", "µg/mL", 0.5],
  ["CCCCCCCCOc1ccc(C(=O)N[C@@]2(C)C[C@H](O[C@H]3[C@H](Oc4c5cc6cc4Oc4ccc(cc4Cl)[C@@H](O)[C@@H](NC(=O)[C@@H](CC(C)C)NC)C(=O)N[C@@H](CC(N)=O)C(=O)N[C@H]6C(=O)N[C@H]4C(=O)N[C@H](C(=O)N[C@H](C(=O)O)c6cc(O)cc(O)c6-c6cc4ccc6O)[C@H](O)c4ccc(c(Cl)c4)O5)O[C@H](CO)[C@@H](O)[C@@H]3O)O[C@@H](C)[C@H]2O)cc1", "µg/mL", 2],
  ["CC(C)C[C@H](C(=O)N[C@H]1C(=O)N[C@@H](CC(N)=O)C(=O)N[C@H]2C(=O)N[C@H]3C(=O)N[C@H](C(=O)N[C@H](C(=O)O)c4cc(O)cc(O)c4-c4cc3ccc4O)[C@H](O)c3ccc(c(Cl)c3)Oc3cc2cc(c3O[C@@H]2O[C@H](CO)[C@@H](O)[C@H](O)[C@H]2O[C@H]2C[C@](C)(NC(=O)CSc3ccccc3)[C@H](O)[C@H](C)O2)Oc2ccc(cc2Cl)[C@H]1O)N(C)C(=O)CSc1ccccc1", "µg/mL", 8]
]}

---

tested on: Staphylococcus aureus X400; assay: agar-dilution MIC; format: cell-based
experimental readout: MIC

{"columns": ["molecule", "observed measurement"],
 "data": [
  ["CN[C@H](CC(C)C)C(=O)N[C@H]1C(=O)N[C@@H](CC(N)=O)C(=O)N[C@H]2C(=O)N[C@H]3C(=O)N[C@H](C(=O)N[C@H](C(=O)O)c4cc(O)cc(O)c4-c4cc3ccc4O)[C@H](O)c3ccc(c(Cl)c3)Oc3cc2cc(c3O[C@@H]2O[C@H](CO)[C@@H](O)[C@H](O)[C@H]2O[C@H]2C[C@](C)(NC(=O)CC(C)Oc3ccccc3)[C@H](O)[C@H](C)O2)Oc2ccc(cc2Cl)[C@H]1O (stereo partly drawn) [Compound 6]", "2 µg/mL"],
  ["CN[C@H](CC(C)C)C(=O)N[C@H]1C(=O)N[C@@H](CC(N)=O)C(=O)N[C@H]2C(=O)N[C@H]3C(=O)N[C@H](C(=O)N[C@H](C(=O)O)c4cc(O)cc(O)c4-c4cc3ccc4O)[C@H](O)c3ccc(c(Cl)c3)Oc3cc2cc(c3O[C@@H]2O[C@H](CO)[C@@H](O)[C@H](O)[C@H]2O[C@H]2C[C@](C)(NC(=O)CC(C)c3cccs3)[C@H](O)[C@H](C)O2)Oc2ccc(cc2Cl)[C@H]1O (stereo partly drawn) [Compound 7]", "1 µg/mL"],
  ["CN[C@H](CC(C)C)C(=O)N[C@H]1C(=O)N[C@@H](CC(N)=O)C(=O)N[C@H]2C(=O)N[C@H]3C(=O)N[C@H](C(=O)N[C@H](C(=O)O)c4cc(O)cc(O)c4-c4cc3ccc4O)[C@H](O)c3ccc(c(Cl)c3)Oc3cc2cc(c3O[C@@H]2O[C@H](CO)[C@@H](O)[C@H](O)[C@H]2O[C@H]2C[C@](C)(NC(=O)c3ccc(OC)cc3)[C@H](O)[C@H](C)O2)Oc2ccc(cc2Cl)[C@H]1O [Compound 4, N^van --(4-methoxybenzoyl)vancomycin]", "2 µg/mL"]
]}
